uninfected Hep2 cells measurements of CC50, listed per entry.

COMPOUND | CC50
CSc1ccc(Cn2c(CN3CCCCC3)nc3ccccc32)cc1 [compound 61] | 20 µM
N=C(N)NCc1nc2ccccc2n1Cc1nc2ccccc2[nH]1 | ≥ 100 µM
O=[N+]([O-])c1ccc(Cn2c(CN3CCCCC3)nc3ccccc32)o1 [compound 77] | ≥ 100 µM
Fc1ccc(CNCc2nc3ccccc3n2Cc2nc3ccccc3[nH]2)cc1 | ≥ 100 µM
O=C(c1ccco1)N1CCN(Cc2nc3ccccc3n2Cc2nc3ccccc3[nH]2)CC1 | ≥ 100 µM

###

CC50 values recorded for uninfected Hep2 cells

COMPOUND | SYSTEM NAME | QUAL | CC50 (µM)
CN1CCCC1CCNCc1nc2ccccc2n1Cc1nc2ccccc2[nH]1 (stereo not drawn) | uninfected Hep2 cells | = | 95
Cc1nc(Cn2c(CN(C(C)C)C3CCCCC3)nc3ccccc32)cs1 | uninfected Hep2 cells | = | 50
Cc1nc(Cn2c(CN3CCCCC3)nc3ccccc32)cs1 | uninfected Hep2 cells | = | 50
CC(C)OCCCNCc1nc2ccccc2n1Cc1nc2ccccc2[nH]1 | uninfected Hep2 cells | ≥ | 100
CN1CCN(CCCNCc2nc3ccccc3n2Cc2nc3ccccc3[nH]2)CC1 | uninfected Hep2 cells | ≥ | 100
O=C1c2ccccc2C(=O)N1Cc1nc2ccccc2n1Cc1nc2ccccc2[nH]1 | uninfected Hep2 cells | = | 50
COC(=O)c1ccc2nc(CN3CCOCC3)n(Cc3nc4ccccc4[nH]3)c2c1 | uninfected Hep2 cells | = | 26
C#CCCN(C)Cc1nc2ccccc2n1Cc1nc2ccccc2[nH]1 | uninfected Hep2 cells | = | 16
FC(F)(F)c1ccccc1CNCc1nc2ccccc2n1Cc1nc2ccccc2[nH]1 | uninfected Hep2 cells | = | 18

###

In what follows, each item is paired with its CC50 for uninfected Hep2 cells.

COMPOUND | QUAL | CC50 (µM)
FC(F)(F)c1ccc(N2CCN(Cc3nc4ccccc4n3Cc3nc4ccccc4[nH]3)CC2)nc1 | = | 78
C1=CCN(Cc2nc3ccccc3n2Cc2nc3ccccc3[nH]2)CC1 | ≥ | 100
FC(F)(F)Oc1ccc(CNCc2nc3ccccc3n2Cc2nc3ccccc3[nH]2)cc1 | ≥ | 100
O=C1C(=O)N(Cc2nc3ccccc3n2Cc2nc3ccccc3[nH]2)c2ccc(F)cc21 | = | 65
CC(C)N(C)Cc1nc2ccccc2n1Cc1nc2ccccc2[nH]1 | = | 25
Clc1ccccc1CNCc1nc2ccccc2n1Cc1nc2ccccc2[nH]1 | ≥ | 100
OCCC1CCCCN1Cc1nc2ccccc2n1Cc1nc2ccccc2[nH]1 (stereo not drawn) | ≥ | 100
c1ccc2c(NCc3nc4ccccc4n3Cc3nc4ccccc4[nH]3)cccc2c1 | = | 14
CCCN(Cc1nc2ccccc2n1Cc1ccc2ccccc2n1)CC1CC1 | = | 50
Fc1cc2c(c(Cn3c(CN4CCCCC4)nc4ccccc43)c1)OCOC2 [compound 73] | = | 101
c1ccc(CN2CCN(Cc3nc4ccccc4n3Cc3nc4ccccc4[nH]3)CC2)cc1 | = | 15
CC(C)N(Cc1nc2ccccc2n1Cc1ccc(S(C)(=O)=O)cc1)C1CCCCC1 | ≥ | 100
c1ccc2[nH]c(Cn3c(CNCC4CCCO4)nc4ccccc43)nc2c1 (stereo not drawn) | ≥ | 100
CN(Cc1nc2ccccc2n1Cc1nc2ccccc2[nH]1)C(c1ccccc1)c1ccccc1 | ≥ | 100
COc1cc(Cn2c(CN(C(C)C)C3CCCCC3)nc3ccccc32)cc(OC)c1 | = | 50
FC(F)(F)Oc1ccccc1Cn1c(CN2CCCCC2)nc2ccccc21 [compound 62] | = | 34
OCCOCCN1CCN(Cc2nc3ccccc3n2Cc2nc3ccccc3[nH]2)CC1 | = | 9
c1ccc2[nH]c(Cn3c(CNC4CCCC4)nc4ccccc43)nc2c1 | ≥ | 100
